- ASSAY_DETAILS: qHTS assay for small molecule agonists of the antioxidant response element (ARE) signaling pathway - cell viability counter screen (AID 743203); further: nearly all actives have a fitted effect of over 55% in size
- STUDY_CONDITIONS: ARE-bla HepG2 viability, CellTiter-Glo luminescence, 16 h; series mostly up to 73.3 µM
Records with an inconclusive call do not appear. Activity calls are given as the source filed them. The call rests on the fitted dose curve.
Your answer must be one of the following: YES (active), NO (inactive)

Completed entries (count: 5):
N#CCCN(CCO)CCO | NO
CCOC(=O)OC(C)OC(=O)[C@@H]1N2C(=O)[C@@H](NC(=O)[C@H](N)c3ccccc3)[C@H]2SC1(C)C (stereo partly specified) | NO
CC1=C(Br)C(=O)C(Br)=C/C1=C(/c1ccccc1S(=O)(=O)O)c1cc(Br)c(O)c(Br)c1C | NO
O=C(O)CCC(=O)C(=O)O | NO
C=C1C[C@@]23CC[C@H]4[C@@](C)(CCC[C@@]4(C)C(=O)O[C@@H]4O[C@H](CO)[C@@H](O)[C@H](O)[C@H]4O)[C@@H]2CC[C@]1(O[C@@H]1O[C@H](CO)[C@@H](O)[C@H](O[C@@H]2O[C@H](CO)[C@@H](O)[C@H](O)[C@H]2O)[C@H]1O[C@@H]1O[C@H](CO)[C@@H](O)[C@H](O)[C@H]1O)C3 | NO

Status in this test for CCCCOc1ccc(OCCCN2CCOCC2)cc1 ?
NO

Kindly provide the recorded test outcome for the following compound: COc1cc(C(=O)NCCCCCC(=O)O)cc(OC)c1OC
NO

Status in this test for NNC(=O)CP(=O)(c1ccccc1)c1ccccc1 ?
NO

Write down the call the test reported for this compound. Item: CCc1ccccc1
NO

What is the recorded call for this compound in the test? CCOC(=O)c1ccc(OCCN2C[C@H](O)[C@@H](O)[C@H](O)[C@H]2CO)cc1
NO
